Molecular target: Prostaglandin G/H synthase 1 (Homo sapiens)
Sequence (P23219 whole entry): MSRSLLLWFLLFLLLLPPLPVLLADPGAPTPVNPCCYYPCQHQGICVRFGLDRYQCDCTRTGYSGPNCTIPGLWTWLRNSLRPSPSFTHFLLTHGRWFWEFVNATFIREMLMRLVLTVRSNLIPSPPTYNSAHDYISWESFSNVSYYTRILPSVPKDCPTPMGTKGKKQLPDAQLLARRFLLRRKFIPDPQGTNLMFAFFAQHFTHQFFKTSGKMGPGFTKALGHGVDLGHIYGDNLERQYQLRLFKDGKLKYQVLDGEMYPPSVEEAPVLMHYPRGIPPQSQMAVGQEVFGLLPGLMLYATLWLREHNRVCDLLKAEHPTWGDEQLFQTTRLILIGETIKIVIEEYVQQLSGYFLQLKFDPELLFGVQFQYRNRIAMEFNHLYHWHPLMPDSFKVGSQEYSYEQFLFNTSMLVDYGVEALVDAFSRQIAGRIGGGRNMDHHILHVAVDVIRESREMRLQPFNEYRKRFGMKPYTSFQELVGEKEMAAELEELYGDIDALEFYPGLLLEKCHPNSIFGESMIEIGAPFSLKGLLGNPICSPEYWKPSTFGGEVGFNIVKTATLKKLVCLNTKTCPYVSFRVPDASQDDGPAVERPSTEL
Experiment: Inhibition of human Prostaglandin G/H synthase 1 at 10 ug/mL expressed as mean percent inhibition of control PGE-2 production
What inhibition was measured for each of the following?
Include the unit right after the number.

[
  {
    "compound_string": "Cc1cnc(NC(=O)C2=C(O)c3sc(C)cc3S(=O)(=O)N2C)s1",
    "recorded_measurement": "93%"
  },
  {
    "compound_string": "CN1C(C(=O)Nc2ccccn2)=C(O)c2c(c3ccccc3n2C)S1(=O)=O",
    "recorded_measurement": "90%"
  },
  {
    "compound_string": "CCN1C(C(=O)Nc2ncc(C)s2)=C(O)c2ccccc2S1(=O)=O",
    "recorded_measurement": "27%"
  }
]

Required: inhibition, one value per compound below.
1. Cc1cnc(NC(=O)C2=C(O)c3cc(F)ccc3S(=O)(=O)N2C)s1
2. CN1C(C(=O)Nc2ncc(-c3ccccc3)s2)=C(O)c2ccccc2S1(=O)=O
3. Cc1ccc2c(c1)/C(=C(\O)Nc1ccccn1)C(=O)N(C)C2=O
4. CN1C(C(=O)Nc2nccs2)=C(O)c2ccccc2S1(=O)=O
5. CN1C(O)=C(C(=O)Nc2ccccn2)c2ccc(Cl)cc2S1(=O)=O
6. CN1C(C(=O)Nc2ccccc2)=C(O)c2cc(Cl)ccc2S1(=O)=O
7. CN1C(C(=O)Nc2nccs2)=C(O)c2c(c3ccccc3n2C)S1(=O)=O

Response given:
["56%", "97%", "73%", "51%", "45%", "17%", "97%"]
